Reference for the values: paper PMC8806001

- system.tested: SARS-CoV-2 PL^pro (Severe acute respiratory syndrome coronavirus 2, UniProt P0DTD1)
- assay.method.text: Thermal shift binding assay
- condition.summary: effect on stability of PL^pro
experimental.endpoint: TSA binding result (in words)

> print(dat)
                                   compound                             system.tested         observed
1  Cc1coc2c1C(=O)C(=O)c1c-2ccc2c(C)cccc12 [Tanshinone I]  SARS-CoV-2 PL^pro (Severe acute respiratory syndrome coronavirus 2, UniProt P0DTD1)  destabilization
2  C[C@H]1COC2=C1C(=O)C(=O)c1c2ccc2c1CCCC2(C)C [Cryptotanshinone]  SARS-CoV-2 PL^pro (Severe acute respiratory syndrome coronavirus 2, UniProt P0DTD1)  destabilization
